target: Cytochrome P450 3A4 (Homo sapiens) (UniProt P08684)
Sequence (P08684 whole entry, looked up): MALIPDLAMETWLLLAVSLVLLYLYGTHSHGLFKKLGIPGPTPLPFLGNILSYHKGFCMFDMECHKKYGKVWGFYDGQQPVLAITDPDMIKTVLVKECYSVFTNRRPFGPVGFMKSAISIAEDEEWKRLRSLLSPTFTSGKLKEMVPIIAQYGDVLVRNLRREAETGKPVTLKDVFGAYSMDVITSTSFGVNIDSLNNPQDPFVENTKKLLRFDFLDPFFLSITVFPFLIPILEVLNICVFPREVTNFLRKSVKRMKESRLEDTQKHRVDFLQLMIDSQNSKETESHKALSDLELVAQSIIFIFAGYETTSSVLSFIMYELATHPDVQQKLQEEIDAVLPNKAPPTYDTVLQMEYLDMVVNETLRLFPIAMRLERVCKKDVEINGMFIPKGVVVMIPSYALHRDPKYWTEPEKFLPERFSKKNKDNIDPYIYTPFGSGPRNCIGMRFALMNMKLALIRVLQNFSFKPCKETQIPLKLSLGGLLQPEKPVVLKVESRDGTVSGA
experimental.protocol: qHTS Assay for Inhibitors and Substrates of Cytochrome P450 3A4 (AID 884); further: on the % scale 0 is the no-effect control and ±100 the full control effect; nearly all actives have a fitted effect of over 50% in size
assay.context: recombinant CYP3A4, Luciferin-PPXE luminescence; series mostly up to 57.1 µM
Records with an inconclusive call do not appear. Active and inactive are the calls of the source. The call rests on the fitted dose curve; in most records, active means well fitted inhibition curve with a large enough effect; inconclusive means small, poorly fitted or top-dose-only effect; inactive means no such curve, though single readings can be large or run the other way.
measured.parameter: activity change, negative = inhibition

[[record]]
compound = "COC(=O)NC(/C(C(=O)OC)=C(\\C)NCc1ccccc1)c1ccco1 (stereo unspecified)"
data_value = "-20.3% [at 11.4 µM] (inactive)"

[[record]]
compound = "CCOC(=O)[C@]1(C(NC(=O)OC)c2cccc(F)c2)CCCC1=O (stereo partly specified)"
data_value = "-16.9% [at 11.4 µM] (inactive)"

[[record]]
compound = "COc1ccc(OC)c(C2OCCC=CC2C)c1 (stereo unspecified)"
data_value = "-16.9% [at 11.4 µM] (inactive)"

[[record]]
compound = "O=C1C=CC2(OCCCO2)C(Br)=C1"
data_value = "-14% [at 11.4 µM] (inactive)"


Quick note, activity change, negative = inhibition for CCOC(=O)OCC1OC(c2ccc(C(C)=O)cc2)C=CC1Oc1ccc(-c2ccccc2)cc1 (stereo unspecified) landed at -27.8% [at 11.4 µM] (inactive)

Quick note, activity change, negative = inhibition for COC(=O)C1=C(C)N(Cc2ccccc2)C2=C3C(=O)CCCC3[C@@](O)(C(=O)OC)C(=O)N2C1c1ccccc1 (stereo partly specified) landed at -20% [at 11.4 µM] (inactive)
